Molecular target: T1, Rhino chromodomain G31D (Rhino residues 20-90) (D. melanogaster, UniProt Q7JXA8 20-90, G31D)
T1 construct: Rhino (HP1d), D. melanogaster, chromodomain construct spanning residues 20-90, with G31D; also called Rhino^G31D chromodomain; source: E. coli BL21-CodonPlus (DE3)-RIPL, purified (Ni-NTA, Ulp1 cleavage, ion exchange, Superdex75); not shown: His6, N-terminal, cleaved; SUMO, N-terminal, cleaved
T1 sequence (looked up): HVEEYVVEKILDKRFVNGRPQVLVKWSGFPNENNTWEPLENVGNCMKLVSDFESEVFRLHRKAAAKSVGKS
Test: ITC; chromodomain at 100 µM, H3K9me3 peptide at approximately 1 mM; 20 mM Tris, pH 8.0, 25 mM NaCl, 2 mM β-mercaptoethanol; 20°C; MicroCal iTC200, sixteen 2.5 µl injections
Conditions: both partners purified
Ends that are not written are not given here. Me3 = trimethyl (on lysine, trimethyl-lysine)
QUANTITY_NAME: pKd
pKd (log units): -log10 of the concentration in mol/L.

Query: GET /values?readout=pKd&item= KQTARK(Me3)STGGK (histone H3 N-terminal tail, K4 to K14 with K9 trimethylated; also called H3K9me3-modified histone tail peptide; synthetic H3K9me3 peptides; source: synthetic peptide; bought: AnaSpec, Inc) [H3K9me3 peptide (KQTAR-K[me3]-STGGK)]
Reply: 4.51
